# ASSAYED_TARGET: M4_G15 fusion protein (M4 muscarinic receptor fused with the G15 G-protein alpha-subunit) (Homo sapiens)
# Sequence (P08173 whole entry, one chain of several, the tested form may be a part): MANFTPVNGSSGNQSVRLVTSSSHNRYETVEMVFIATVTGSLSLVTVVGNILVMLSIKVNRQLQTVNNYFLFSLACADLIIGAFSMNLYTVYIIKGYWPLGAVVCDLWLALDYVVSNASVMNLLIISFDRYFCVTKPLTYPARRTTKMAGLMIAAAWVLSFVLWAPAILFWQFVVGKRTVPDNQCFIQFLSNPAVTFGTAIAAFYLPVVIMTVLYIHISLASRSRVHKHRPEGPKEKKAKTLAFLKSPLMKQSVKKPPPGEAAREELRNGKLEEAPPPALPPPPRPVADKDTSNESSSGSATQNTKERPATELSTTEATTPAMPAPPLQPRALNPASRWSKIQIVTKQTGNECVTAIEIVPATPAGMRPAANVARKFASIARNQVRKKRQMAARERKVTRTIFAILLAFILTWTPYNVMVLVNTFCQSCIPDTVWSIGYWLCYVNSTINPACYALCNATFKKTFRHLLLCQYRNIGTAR
# TEST_DESCRIPTION: agonist-stimulated […]GTPγS binding, membranes
REPORTED_METRIC: EC50 (nM)
Please state the figure in nM; there is no need to write the unit.

Sample O=C1CCCN1CC#CCN1CCCC1 [oxotremorine] — what was its EC50? 17

====

# ASSAYED_TARGET: M2_G15 fusion protein (M2 muscarinic receptor fused with the G15 G-protein alpha-subunit) (Homo sapiens, UniProt P08172)
# Sequence (P08172 whole entry, the tested form may be a part): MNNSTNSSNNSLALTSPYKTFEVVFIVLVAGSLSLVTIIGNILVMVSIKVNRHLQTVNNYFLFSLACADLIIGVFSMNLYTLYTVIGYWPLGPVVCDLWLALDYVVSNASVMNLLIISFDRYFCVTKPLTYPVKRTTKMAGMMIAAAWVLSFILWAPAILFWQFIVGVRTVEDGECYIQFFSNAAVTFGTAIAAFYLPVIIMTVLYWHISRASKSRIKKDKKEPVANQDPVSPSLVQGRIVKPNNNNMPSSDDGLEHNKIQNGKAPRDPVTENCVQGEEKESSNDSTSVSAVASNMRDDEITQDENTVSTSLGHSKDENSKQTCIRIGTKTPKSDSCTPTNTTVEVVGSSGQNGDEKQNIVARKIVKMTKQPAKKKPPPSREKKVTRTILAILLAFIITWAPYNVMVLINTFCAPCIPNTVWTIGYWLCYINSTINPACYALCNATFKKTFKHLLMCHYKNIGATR
# Sequence (P30679 whole entry partner, the tested form may be a part): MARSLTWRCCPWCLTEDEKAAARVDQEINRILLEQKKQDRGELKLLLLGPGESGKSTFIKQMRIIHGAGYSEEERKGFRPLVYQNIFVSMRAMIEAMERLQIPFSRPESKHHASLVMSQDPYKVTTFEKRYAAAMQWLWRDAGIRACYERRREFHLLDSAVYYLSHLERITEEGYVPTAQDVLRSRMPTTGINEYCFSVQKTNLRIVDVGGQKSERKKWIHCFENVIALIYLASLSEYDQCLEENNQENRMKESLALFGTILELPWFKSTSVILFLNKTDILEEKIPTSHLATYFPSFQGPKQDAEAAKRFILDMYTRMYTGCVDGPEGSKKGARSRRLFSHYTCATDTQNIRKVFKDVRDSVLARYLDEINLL
# TEST_DESCRIPTION: agonist-stimulated […]GTPγS binding, membranes
REPORTED_METRIC: EC50 (nM)
Record the value in nM, omitting the unit from your answer.

What EC50 value was documented for this compound, O=C1CCCN1CC#CCN1CCCC1 [oxotremorine] ? 18.6
